- Test system: miR-21
- experimental-details: miR-21 luciferase sensor assay in Hela cells
- Type: cell-based
- cond: concentration of anti-miR compound 50.0 (unit not given)
Strand notation (5' to 3'): a small letter for the sugar, then the base; units joined by * are phosphorothioate-linked, units joined directly phosphodiester-linked; [ ] holds rarer units or linkages, { } end groups; capitals alone tell only the bases. e = 2'-O-(2-methoxyethyl) (MOE); k = constrained ethyl (cEt); [5mC] = 5-methylcytosine; d = 2'-deoxy (DNA)
property-measured: fold change in luciferase value relative to the mock treatment

substance	measured-result
AE^MeCSAT^MeCSAGT^MeCSTGATSAAG^MeCSTAS (antisense eA*k[5mC]*dA*dT*k[5mC]*dA*dG*dT*k[5mC]*dT*dG*dA*kT*dA*dA*dG*k[5mC]*dT*kA; further chemistry not given here) [Compound 25924, variation of 25070: 3′-terminal cEt nucleoside and each cytosine is a 5-methyl cytosine]	8.99 fold change
AE^MeCSAT^MeCSAGT^MeCSTGATSAAG^MeCSTAE (antisense ACATCAGTCTGATAAGCTA; MOE ends, cEt, 5-methyl C, unmarked nucleosides not given here, further chemistry not given here) [Compound 25922, variation of 25070: each cytosine is a 5-methyl cytosine]	11.46 fold change
AE^MeCSAETE^MeCSAEGETE^MeCSTEGEAE^MeTSAEAEGE^MeCSTEAE (antisense eA*k[5mC]*eA*eT*k[5mC]*eA*eG*eT*k[5mC]*eT*eG*eA*kT*eA*eA*eG*k[5mC]*eT*eA; further chemistry not given here) [Compound 25116, variation of 25070: each non-bicyclic nucleoside is 2′-MOE, each cytosine 5-methyl cytosine]	1.98 fold change
